TARGET_OF_ASSAY: UniProt Q8I4W4
PROTOCOL_NOTES: IC50 for competition of protein binding to Kinobeads;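 further: native unpurified kinases from lysate captured on beads bearing immobilized kinase inhibitors, with bead-bound kinases quantified by mass spectrometry across compound doses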
CONDITION_DESCRIPTION: assay detail: Kinobeads competition in P. falciparum blood-stage lysate
pIC50: −log10 of the molar value.

>  <MOLECULE>
O=c1[nH]c2ccc(Cl)cc2c(NC2CN3CCC2CC3)c1-c1nc2ccccc2[nH]1 (stereo unspecified) [CHIR-124]

>  <pIC50>
< 4.70

$$$$

====

TARGET_OF_ASSAY: UniProt Q7KQK6
PROTOCOL_NOTES: IC50 for competition of protein binding to Kinobeads
CONDITION_DESCRIPTION: assay detail: Kinobeads competition in P. falciparum blood-stage lysate
pIC50: −log10 of the molar value.
PARAMETER_MEASURED: pIC50

>  <COMPOUND>
O=c1[nH]c2ccc(Cl)cc2c(NC2CN3CCC2CC3)c1-c1nc2ccccc2[nH]1 (stereo unspecified) [CHIR-124]

>  <TARGET_OF_ASSAY>
UniProt Q7KQK6

>  <MEASURED>
< 4.70

$$$$
